Target chain: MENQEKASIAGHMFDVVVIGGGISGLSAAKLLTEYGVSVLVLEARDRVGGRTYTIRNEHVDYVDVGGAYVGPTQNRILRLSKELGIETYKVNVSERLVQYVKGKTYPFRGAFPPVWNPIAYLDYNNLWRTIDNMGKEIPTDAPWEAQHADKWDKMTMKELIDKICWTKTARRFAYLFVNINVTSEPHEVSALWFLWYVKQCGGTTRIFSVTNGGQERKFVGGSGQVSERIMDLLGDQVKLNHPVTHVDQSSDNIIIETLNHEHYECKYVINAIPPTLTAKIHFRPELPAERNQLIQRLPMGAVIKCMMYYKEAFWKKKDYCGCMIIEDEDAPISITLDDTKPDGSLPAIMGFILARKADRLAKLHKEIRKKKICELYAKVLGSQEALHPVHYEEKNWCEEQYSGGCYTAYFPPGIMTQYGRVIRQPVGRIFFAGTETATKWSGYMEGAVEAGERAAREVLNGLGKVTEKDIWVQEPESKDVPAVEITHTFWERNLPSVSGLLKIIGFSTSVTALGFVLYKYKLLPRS
pKi: −log10 of the molar value.
measurement name: pKi

Solved entries:
- compound: "Cc1cn(CC(=O)c2ccc(-c3ccc(N4C[C@H](Cn5ccnn5)OC4=O)cc3F)cn2)c(C)n1"
  value measured: "< 4.96"
- compound: "CC(C)NCC(O)c1ccc(-c2ccc(N3C[C@H](Cn4ccnn4)OC3=O)cc2F)cn1 (stereo partly drawn)"
  value measured: "< 3.75"

Field pKi (entry O=C1O[C@@H](Cn2ccnn2)CN1c1ccc(-c2cccnc2)c(F)c1 ) reads > 6.52

The value of pKi measured for the compound Cc1cn(CC(=O)c2ccc(-c3ccc(N4C[C@H](Cn5ccnn5)OC4=O)cc3F)cn2)cn1 turned out to be < 5.25

According to the records, this compound CN(C)CC(O)c1ccc(-c2ccc(N3C[C@H](Cn4ccnn4)OC3=O)cc2F)cn1 (stereo partly drawn) displays pKi of < 3.75

Measured pKi, O=C(c1ccc(-c2ccc(N3C[C@H](Cn4ccnn4)OC3=O)cc2F)cn1)C1CCNCC1 : < 4.36

Data point: O=C(Cn1ccnc1)c1ccc(-c2ccc(N3C[C@H](Cn4ccnn4)OC3=O)cc2F)cn1 ; pKi = < 4.92

CCc1nccn1CC(=O)c1ccc(-c2ccc(N3C[C@H](Cn4ccnn4)OC3=O)cc2F)cn1 yielded pKi of < 4.36
